- protocol: Maximum tolerated dose (MTD) toxicology study
- cond: Balb/c, mouse, in vivo, ip
measurement kind: MTD at 3 days
Please make sure the unit comes right after the number.

Any idea what its MTD at 3 days is? The compound is CC(C)C[C@H](NC(=O)[C@H](CCCNC(=N)N)NC(=O)CNC(=O)CNC(=O)[C@@H](N)CCCNC(=N)N)C(=O)N[C@H]1CSSC[C@@H](C(=O)N[C@H](C(=O)NCC(=O)N[C@@H](CCCNC(=N)N)C(N)=O)C(C)C)NC(=O)[C@H](C(C)C)NC(=O)[C@@H]2CSSC[C@H](NC(=O)[C@H](Cc3ccc(O)cc3)NC1=O)C(=O)N[C@@H](CCCNC(=N)N)C(=O)N[C@@H](CCCNC(=N)N)C(=O)N[C@@H](CCCNC(=N)N)C(=O)N[C@@H](Cc1ccccc1)C(=O)N2 [PG-1, reference compound]
5 mg/kg
